Source: patent US4024263A

Assay: acute lethal toxicity (ALD50)
Conditions: mouse, in vivo, ip; intraperitoneal, groups of four mice; read-out: Toxicity ALD50 (acute lethal dose in 50% of the mice tested)
Text: The results are expressed in ED50 's (intraperitoneal dose effecting a 50% inhibition of ptosis of tetrabenzazine-induced depression in mice). The doses are in mg/kg of body weight. […] The toxicity data is expressed in ALD50 's (the acute lethal intraperitoneal dose, mg/kg of body weight, in 50% of the mice tested).
quantity.kind: LD50

NN1CCC2(CC1)OC(c1ccccc1)c1ccccc12 (stereo not drawn) = 100 mg/kg
ON1CCC2(CC1)OC(c1ccc(F)cc1)c1ccccc12 (stereo not drawn) = 316 mg/kg
C[N+]1([O-])CCC2(CC1)OC(c1ccccc1)c1ccccc12 (stereo not drawn) = 280 mg/kg
COc1ccc(C2OC3(CCN(O)CC3)c3ccccc32)cc1 (stereo not drawn) = > 562 mg/kg
ON1CCC2(CC1)OC(c1ccccc1)c1ccccc12 (stereo not drawn) = > 562 mg/kg

The compound COc1ccc2c(c1)C1(CCN(O)CC1)OC2c1ccccc1 (stereo not drawn) showed LD50 equal to > 562 mg/kg
